System: HCT 116 cells
Assay: Cell proliferation assay (HCT 116), Cell-titer Glo
Type: cell-based
Conditions: Homo sapiens, 120 h incubation
Endpoint name: IC50 (nM)

Molecule	System name	Unit string	IC50
COC[C@H]1Cn2cc(-c3nc(Nc4ccnn4C)ncc3C(F)(F)F)cc2C(=O)N1Cc1cc(F)ccc1CO [Example 163]	HCT 116 cells	nM	18.8
Cn1nccc1Nc1cc(-c2cc3n(c2)CCN(Cc2cc(F)ccc2CO)C3=O)c(C(F)(F)F)cn1 [Example 161]	HCT 116 cells	nM	24.6

1: CC(C)Nc1cc(-c2cc3n(c2)CC(CO)(CO)CN(Cc2cc(F)ccc2CO)C3=O)c(Cl)cn1 [Example 29]
2: COC[C@H]1Cn2cc(-c3cc(Nc4ccnn4C(F)F)ncc3Cl)cc2C(=O)N1Cc1cc(F)ccc1CO [Example 54]
3: COC[C@H]1Cn2cc(-c3cc(Nc4ccnn4C)ncc3Cl)cc2C(=O)N1Cc1cccc(F)c1CO [Example 98]
Ranking field: IC50; order: falling. Return the labels ranked in the requested order, please.
2, 3, 1

###

Target: UniProtKB P27361
Assay: Kinase assay (Caliper, FAM-labeled peptide), ERK1
Format: biochemical
Endpoint name: IC50 (nM)

P: COC[C@H]1Cn2cc(-c3cc(NC4CC4)ncc3Cl)cc2C(=O)N1Cc1cc(F)ccc1CO
Q: COCC1Cn2cc(-c3cc(NC4CCN(C(C)C)CC4)ncc3Cl)cc2C(=O)N1Cc1cc(F)ccc1CO (centres unmarked)
R: Cc1cnc(Nc2cccc3c2OCO3)nc1-c1cc2n(c1)CCN(Cc1cc(F)ccc1CO)C2=O
Using measured IC50, arrange the molecules from above in descending sequence. Return the labels ranked in the requested order, please.
Q, P, R
(Q: 3.1 nM, P: 1.2 nM, R: 0.7 nM)

###

Target: ERK2 (Homo sapiens, UniProt P28482)
Sequence (P28482 whole entry): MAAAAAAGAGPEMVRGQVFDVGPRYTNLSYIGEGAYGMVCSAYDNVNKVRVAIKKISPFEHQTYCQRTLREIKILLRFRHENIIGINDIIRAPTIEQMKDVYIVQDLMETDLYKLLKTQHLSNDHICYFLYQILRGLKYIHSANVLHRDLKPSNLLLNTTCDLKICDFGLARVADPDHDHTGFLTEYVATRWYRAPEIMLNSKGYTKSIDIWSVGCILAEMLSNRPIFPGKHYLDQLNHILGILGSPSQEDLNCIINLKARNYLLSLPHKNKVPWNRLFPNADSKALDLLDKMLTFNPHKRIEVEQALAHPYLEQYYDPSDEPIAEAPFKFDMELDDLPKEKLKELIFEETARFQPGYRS
Test: Kinase assay (Caliper, FAM-labeled peptide), ERK2
Type: biochemical
Endpoint name: IC50 (nM)

Some solved entries appear below for comparison.
Molecule	Unit string	IC50
COC[C@H]1Cn2cc(-c3ccnc(NC(C)C)n3)cc2C(=O)N1Cc1cc(F)ccc1CO [Example 127]	nM	0.35
Cc1cnc(Nc2ccc3c(cnn3C)c2)nc1-c1cc2n(c1)CCN(Cc1cc(F)ccc1CO)C2=O [Example 134]	nM	0.5
CC(C)Nc1cc(-c2cc3n(c2)CCN(Cc2cc(F)ccc2CO)C3=O)c(Cl)cn1 [Example 18]	nM	0.49
CC(C)Nc1cc(-c2cc3n(c2)CC2(CNC2)CN(Cc2ccccc2CO)C3=O)c(Cl)cn1 [Example 24]	nM	0.53
COC[C@H]1Cn2cc(-c3cc(Nc4cc(C)on4)ncc3Cl)cc2C(=O)N1Cc1cc(F)ccc1CO [Example 80]	nM	0.68
CC(C)Nc1cc(-c2cc3n(c2)CC(CO)(CO)CN(Cc2cc(F)ccc2CO)C3=O)c(Cl)cn1 [Example 29]	nM	0.83
COC[C@H]1Cn2cc(-c3cc(Nc4cc(C)nn4C)ncc3Cl)cc2C(=O)N1Cc1cc(F)ccc1CO [Example 96]	nM	1.8
CC(C)Nc1cc(-c2cc3n(c2)CC(CO)CN(Cc2cc(F)ccc2CO)C3=O)c(Cl)cn1 (centres unmarked) [Example 42]	nM	1.6
CC(C)Nc1cc(-c2cc3n(c2)CC2(COCOC2)CN(Cc2cc(F)ccc2CO)C3=O)c(Cl)cn1 [Example 43]	nM	0.5
Cc1ccccc1Nc1ncc(C)c(-c2cc3n(c2)CCN(Cc2cc(F)ccc2CO)C3=O)n1 [Example 49]	nM	0.8

A: O=C1c2cc(-c3cc(NC4CCOC4)ncc3Cl)cn2CCN1Cc1cc(F)ccc1CO (centres unmarked) [Example 31]
B: Cc1cnc(Nc2cccc3c2OCO3)nc1-c1cc2n(c1)CCN(Cc1cc(F)ccc1CO)C2=O [Example 133]
C: COC[C@H]1Cn2cc(-c3cc(Nc4ccn(CC(F)F)n4)ncc3Cl)cc2C(=O)N1Cc1cc(F)ccc1CO [Example 114]
Put the molecules in ascending order of IC50. Return the labels ranked in the requested order, please.
A, B, C
(A: 0.32 nM, B: 0.7 nM, C: 1.3 nM)

###

Biological target: ERK1 (Homo sapiens)
Sequence (P27361 whole entry): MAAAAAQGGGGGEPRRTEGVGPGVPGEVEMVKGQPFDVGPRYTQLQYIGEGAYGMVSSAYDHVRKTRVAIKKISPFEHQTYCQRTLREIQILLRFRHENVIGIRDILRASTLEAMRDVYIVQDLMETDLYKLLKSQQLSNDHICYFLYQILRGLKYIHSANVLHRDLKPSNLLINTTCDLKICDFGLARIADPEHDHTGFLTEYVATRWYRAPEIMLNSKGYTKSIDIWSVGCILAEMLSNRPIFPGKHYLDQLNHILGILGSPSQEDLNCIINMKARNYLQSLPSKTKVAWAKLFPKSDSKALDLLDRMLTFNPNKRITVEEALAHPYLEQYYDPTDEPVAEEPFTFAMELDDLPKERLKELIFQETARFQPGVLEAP
Test: Kinase assay (Caliper, FAM-labeled peptide), ERK1
Assay type: biochemical
Endpoint name: IC50 (nM)

Compound	Endpoint name	Unit string	Meas value
COC[C@H]1Cn2cc(-c3cc(NC(C)C)ncc3Cl)nc2C(=O)N1Cc1cc(F)ccc1CO	IC50	nM	2.8

A: COC[C@H]1Cn2cc(-c3ccnc(NC(C)C)n3)cc2C(=O)N1Cc1cc(F)ccc1CO
B: COC[C@H]1Cn2cc(-c3cc(Nc4ccnn4C)ncc3Cl)cc2C(=O)N1Cc1cc(F)ccc1CO
C: COCC1Cn2cc(-c3cc(NC4CCN(C(C)=O)CC4)ncc3Cl)cc2C(=O)N1Cc1cc(F)ccc1CO (stereo not shown)
D: CC(C)Nc1cc(-c2cc3n(c2)CCN(Cc2cc(F)c(F)cc2CO)C3=O)c(Cl)cn1
E: Cc1cnc(NC(C)CO)nc1-c1cc2n(c1)CCN(Cc1cc(F)ccc1CO)C2=O (stereo not shown)
Put the compounds in ascending order of IC50. Return the labels ranked in the requested order, please.
E, D, C, B, A

###

Biological target: ERK2 (Homo sapiens, UniProt P28482)
Assay: Kinase assay (Caliper, FAM-labeled peptide), ERK2
Format: biochemical
Endpoint name: IC50 (nM)

Some solved entries appear below for comparison.
Compound	Meas value
CC(C)Nc1cc(-c2cnc(C(=O)NCc3cccc(F)c3CO)s2)c(Cl)cn1	1.2
Cn1nccc1Nc1ncc(C(F)(F)F)c(-c2cc3n(c2)CCN(Cc2cc(F)ccc2CO)C3=O)n1	0.66
COC[C@H]1Cn2cc(-c3cc(NC4CCC(OC)CC4)ncc3Cl)cc2C(=O)N1Cc1cc(F)ccc1CO (some centres unmarked)	0.9

a: Cc1cnc(Nc2ccnn2C)nc1-c1c[nH]c(C(=O)NCc2cc(F)ccc2CO)c1
b: CC(C)Nc1cc(-c2cc3n(c2)CC2(COC(C)(C)OC2)CN(Cc2cc(F)ccc2CO)C3=O)c(Cl)cn1
Which has the smaller recorded IC50, a or b ? When you have decided, please share the label of that item.
a

###

Molecular target: ERK2 (Homo sapiens, UniProt P28482)
Assay: Kinase assay (Caliper, FAM-labeled peptide), ERK2
Format: biochemical
Endpoint name: IC50 (nM)

Some solved entries appear below for comparison.
Molecule	System name	Unit string	Meas value
COC[C@H]1Cn2cc(-c3cc(NC4COC(C)(C)C4)ncc3Cl)cc2C(=O)N1Cc1cc(F)ccc1CO (stereo partly shown)	ERK2 (Homo sapiens, UniProt P28482)	nM	0.39
COC[C@H]1Cn2cc(-c3nc(Nc4ccnn4C)ncc3C(F)(F)F)cc2C(=O)N1Cc1cc(F)ccc1CO	ERK2 (Homo sapiens, UniProt P28482)	nM	0.62

a: CC(C)Nc1cc(-c2cc3n(c2)CC2(COC2)CN(Cc2ccccc2CO)C3=O)c(Cl)cn1
b: O=C1c2cc(-c3cc(NCC(F)(F)F)ncc3Cl)cn2CCN1Cc1cc(F)ccc1CO
Which has the smaller recorded IC50, a or b ? When you have decided, please share the label of that item.
a

A: CC(C)Nc1cc(-c2cc3n(c2)CC2(COC2)CN(Cc2cc(F)c(F)cc2CO)C3=O)c(Cl)cn1
B: CC(C)Nc1cc(-c2cc3n(c2)CC2(COC2)CN(Cc2cc(F)ccc2CO)C3=O)c(Cl)cn1
Sorting by IC50 in descending order, would A or B appear first? When you have decided, please share the label of that item.
B
(B: 0.87 nM, A: 0.4 nM)

###

Target: ERK2 (Homo sapiens, UniProt P28482)
Assay: Kinase assay (Caliper, FAM-labeled peptide), ERK2
Type: biochemical
Endpoint name: IC50 (nM)

Some solved entries appear below for comparison.
Compound	Endpoint name	Unit string	Meas value
CC(C)Nc1cc(-c2cc3n(c2)CC2(CN(C)C2)CN(Cc2ccccc2CO)C3=O)c(Cl)cn1	IC50	nM	0.84
Cc1cnc(Nc2ccnn2C)nc1-c1cc2n(c1)CCN(Cc1cc(F)ccc1CO)C2=O	IC50	nM	0.48
Cn1nccc1Nc1cc(-c2cc3n(c2)CCN(Cc2cc(F)ccc2CO)C3=O)c(Cl)cn1	IC50	nM	0.89
Cc1cnc(Nc2ccc(OC(C)C)nc2)nc1-c1cc2n(c1)CCN(Cc1cc(F)ccc1CO)C2=O	IC50	nM	1.7
Cc1cnc(NC2COC2)nc1-c1c[nH]c(C(=O)NCc2cc(F)ccc2CO)c1	IC50	nM	0.71
COC[C@H]1Cn2cc(-c3cc(NC4CCOC(C)(C)C4)ncc3Cl)cc2C(=O)N1Cc1cc(F)ccc1CO (some centres unmarked)	IC50	nM	1.5

A: COC[C@H]1Cn2cc(-c3cc(Nc4ccnn4C)ncc3Cl)cc2C(=O)N1Cc1cc(F)c(F)c(F)c1CO
B: CC(C)Nc1cc(-c2cc3n(c2)CC2(COC2)CN(Cc2ccc(F)cc2CO)C3=O)c(Cl)cn1
Sorting by IC50 in descending order, would A or B appear first? When you have decided, please share the label of that item.
B
(B: 0.89 nM, A: 0.59 nM)
